Items are presented alongside their recorded z-score.
assay: Components of the Cytosolic LPS Sensing Pathway: Gene Identification via Genome-wide siRNA Screen; conditions: RAW264.7 macrophages, IL-1a HTRF, actives lie on both sides, screened at 100 nM (by protocol), cells primed 5 h with Pam3CSK4 first;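 further: robust z of the log signal after scaling to non-targeting control siRNA wells of the plate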
Among all 53,000 sequences or so, about 3,700 (7%) were called active. The entries come from a sample that favours actives as a whole.

biosequence | z-score
GCUGGAAAUGACACUGCCUTT against C1qtnf7 | 1.45
GGUGUUUAAUUGCUCACUATT against Gramd4 | 1.13
GCUAGAAAUAAGGCUGCACTT against Plekhg6 | -1.2
GGAAGACAUAUUAACUACUTT against Gpr37 | 0.544
GGUGACUUGGAAGAGCCCATT against Il1rapl2 | -0.637
GGCUACGUGAAGGAACAGUTT against Rps10 | 0.397

====

# z-score per record follows
assay: Components of the Cytosolic LPS Sensing Pathway: Gene Identification via Genome-wide siRNA Screen; conditions: RAW264.7 macrophages, IL-1a HTRF, actives lie on both sides, screened at 100 nM (by protocol), cells primed 5 h with Pam3CSK4 first;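 further: robust z of the log signal after scaling to non-targeting control siRNA wells of the plate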
Out of some 53,000 sequences screened, about 3,700 (7%) were called active. The entries come from a sample that favours actives as a whole.

biosequence | z-score
CCGACUGCUCGUAAAUUCATT against Ndufa12 | 2.79
AACUUUCUCAUUCUUACUGTT against Olfr961 | -1.22
CCAAGGGUUGUUAAGUAUUTT against Cdh26 | 1.08
GGUACUUUACACUGAACAATT against Serpinb13 | 2.91
CGUAUUGUUUCCUAGCACATT against Arhgef38 | 2.08
CCCAACAACCAACUAUUUUTT against Kcna1 | 3.36
GGAGAAAAUUCAAGUCACCTT against Olfr663 | 0.215
CCUGGUGCUUCGUAAUUACTT against Cyp11a1 | -1.03
CGAAGUUACGAGCAUCCACTT against Crhr2 | 3.81
CGAAUUAAUCUCACAGGAGTT against Vps53 | 0.44
GCAAUGCUCUAAUCCACUCTT against Npas4 | 0.654
UCACAGUCAUCAUUGUUUCTT against Olfr825 | -2.83

====

assay: Components of the Cytosolic LPS Sensing Pathway: Gene Identification via Genome-wide siRNA Screen; settings: RAW264.7 macrophages, IL-1a HTRF, actives lie on both sides, screened at 100 nM (by protocol), cells primed 5 h with Pam3CSK4 first;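 further: robust z of the log signal after scaling to non-targeting control siRNA wells of the plate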
Hit rate of the full screen: of about 53,000 sequences, about 3,700 (7%) were called active. The entries come from a sample that favours actives as a whole.
Use label 1 when the recorded z-score is no lower than 0.7; use label 0 when it is lower.

biosequence | label_value
GCGAAACUUCCAGAUCUAGTT against Cnot11 | label 1
CCAGGAGUCGAGUGAUGGUTT against Rtl1 | label 1
CCCAUGGGCAGAUGAAAGCTT against Olfr1441 | label 0
GGAAGAUGCCUACUUCAGATT against 4632433K11Rik | label 1
GGUAGUGAGUACUUUGGAATT against Amy2a5 | label 0
GGUGUUGGAUCAUGAUGUUTT against Nf2 | label 0
GCCUUUCUUCAGUGUUCACTT against Gm128 | label 0
GCUGUAUGGGAAGGGUUACTT against Tsen2 | label 1
GGAAGAGUUGGAAAUUUACTT against Gdpd3 | label 0
GGAAAUUCACAAACAUGGATT against Gins3 | label 0
GCCCAUUAUGGUUAAAGAATT against Ccnb3 | label 0
GCAAAGAGGCCUAAUUGAATT against B2m | label 1
CCGGUUUCAAAUUGCCACUTT against Psmb4 | label 0
GGAUGUGAUCCUACUGACATT against Tmem208 | label 1
GGUGGUAAUUUUUCUCAGATT against Agxt2 | label 0
GGACACAGACAUCCUCUUGTT against Sult5a1 | label 1
GUGUUCAGGAAGCUGGCAGTT against Klra19 | label 1
GAAGACCAAGCUUUGUACUTT against Olfr339 | label 1
GCCAUCCUUCCAUUUAAGATT against Wdyhv1 | label 0
GCUAAUAACUGUUCACAUATT against Magi1 | label 1
GGACCUAAUCCAUAAGGUCTT against Pcyox1l | label 0
GCAUCCUUAGUGAUUUCUATT against Slc48a1 | label 0
GGUUUUGAGAUUGAAAGAATT against Myof | label 0
GCAACCUGUCAUUUUGUGATT against Olfr1134 | label 0
GCCGUCUACCCUGAUAACATT against Cp | label 0
